# Test system: HL-60
# Experiment Summary: -log of the half-maximal concentration for stimulation of GTPase in HL-60 membrane (sensitive to PTX)
# Assay type: functional
# Recorded Conditions: Homo sapiens
Endpoint Label: EC50 (nM)

Compound	Target	Endpoint Label	Result
CCCCCCCCCCCCNC(=O)[C@@H](N)CCCCN [N-DODECYL LYSINE AMIDE]	HL-60	EC50	794
CCCCCCCCCCCCCCNC(=O)[C@@H](N)CCCCN	HL-60	EC50	501
CCCCCCCCCCCCCCCCNCC(N)CCCCN (stereo not drawn)	HL-60	EC50	251
CC[C@H](C)[C@H](N)C(=O)N[C@@H](CC(N)=O)C(=O)N[C@@H](CC(C)C)C(=O)N[C@@H](CCCCN)C(=O)N[C@@H](C)C(=O)N[C@@H](CC(C)C)C(=O)N[C@@H](C)C(=O)N[C@@H](C)C(=O)N[C@@H](CC(C)C)C(=O)N[C@@H](C)C(=O)N[C@@H](CCCCN)C(=O)N[C@@H](CCCCN)C(=O)N[C@H](C(=O)N[C@@H](CC(C)C)C(N)=O)[C@@H](C)CC	HL-60	EC50	3160
CCCCCCCCCCCCCCNCC(N)CCCCN (stereo not drawn)	HL-60	EC50	251
CCCCCCCCCCCCNC(=O)[C@H](N)CCCCN	HL-60	EC50	794
CCCCCCCCCCCCCCCCNC(=O)[C@@H](N)CCCCN	HL-60	EC50	501
CCCCCCCCCCCCNCC(N)CCCCN (stereo not drawn)	HL-60	EC50	501
